SUBJECT_OF_TEST: HLA-A*69:01
EXPERIMENT_SUMMARY: IEDB peptide-MHC binding, purified MHC/direct/fluorescence; filed as Kd, often an IC50 or EC50 that approximates it; bounds were set here for any values at or beyond the usual limits of such assays
CONDITION_INFO: source organism: Aggregatibacter actinomycetemcomitans
PARAMETER_MEASURED: Kd

## Task Fill: Kd (HLA-A*69:01) for this sequence `RSEVELCIY`
## Result ≥ 20 µM

====

SUBJECT_OF_TEST: HLA-B*15:01
EXPERIMENT_SUMMARY: IEDB peptide-MHC binding, purified MHC/competitive/fluorescence; filed as Kd, often an IC50 or EC50 that approximates it; bounds were set here for any values at or beyond the usual limits of such assays
CONDITION_INFO: source organism: Streptococcus pneumoniae TIGR4
PARAMETER_MEASURED: Kd

## Task Item `CLSDEINHV` : provide Kd
## Result ≥ 20 µM

====

SUBJECT_OF_TEST: HLA-A*68:23
EXPERIMENT_SUMMARY: IEDB peptide-MHC binding, purified MHC/competitive/fluorescence; filed as Kd, often an IC50 or EC50 that approximates it; bounds were set here for any values at or beyond the usual limits of such assays
CONDITION_INFO: source organism: Vaccinia virus WR
PARAMETER_MEASURED: pKd
Give bare numbers, as −log10 of the molar value.

## Task Item `MPAYIRNTL` : provide pKd
## Result 9.05

====

SUBJECT_OF_TEST: HLA-B*27:05
EXPERIMENT_SUMMARY: IEDB peptide-MHC binding, purified MHC/direct/fluorescence; filed as Kd, often an IC50 or EC50 that approximates it; bounds were set here for any values at or beyond the usual limits of such assays
CONDITION_INFO: source organism: Aggregatibacter actinomycetemcomitans
pKd: −log10 of the molar value.
PARAMETER_MEASURED: pKd

## Task Item `RSEVELCIY` : provide pKd
## Result ≤ 4.70

====

Can you tell me pKd for the items I'm about to list?
SUBJECT_OF_TEST: HLA-A*30:01
EXPERIMENT_SUMMARY: IEDB peptide-MHC binding, purified MHC/competitive/radioactivity; filed as Kd, often an IC50 or EC50 that approximates it; bounds were set here for any values at or beyond the usual limits of such assays
CONDITION_INFO: source organism: Vaccinia virus Copenhagen
One number for each entry, as −log10 of the molar value.

Completed entries (count: 2):
## Task Fill: pKd (HLA-A*30:01) for this sequence `LARRPTPKK`
## Result 7.98

## Task Fill: pKd (HLA-A*30:01) for this sequence `SPGIRPRFL`
## Result 5.07

Next:
## Task Fill: pKd (HLA-A*30:01) for this sequence `LIPFLILFI`
## Result 7.01

====

SUBJECT_OF_TEST: HLA-A*02:06
EXPERIMENT_SUMMARY: IEDB peptide-MHC binding, purified MHC/competitive/radioactivity; filed as Kd, often an IC50 or EC50 that approximates it; bounds were set here for any values at or beyond the usual limits of such assays
CONDITION_INFO: source organism: Hepatitis C virus (isolate 1)
PARAMETER_MEASURED: pKd
One number for each entry, as −log10 of the molar value.

## Task Fill: pKd (HLA-A*02:06) for this sequence `CINGVCWTV`
## Result 5.36

====

SUBJECT_OF_TEST: HLA-A*69:01
EXPERIMENT_SUMMARY: IEDB peptide-MHC binding, purified MHC/direct/fluorescence; filed as Kd, often an IC50 or EC50 that approximates it; bounds were set here for any values at or beyond the usual limits of such assays
CONDITION_INFO: source organism: Treponema denticola
pKd: −log10 of the molar value.
PARAMETER_MEASURED: pKd

## Task Item `RQDEVGTPF` : provide pKd
## Result ≤ 4.70

====

SUBJECT_OF_TEST: HLA-B*15:01
EXPERIMENT_SUMMARY: IEDB peptide-MHC binding, purified MHC/direct/fluorescence; filed as Kd, often an IC50 or EC50 that approximates it; bounds were set here for any values at or beyond the usual limits of such assays
CONDITION_INFO: source organism: Bacillus licheniformis
Can you tell me pKd for the items I'm about to list?
Numbers only, as −log10 of the molar value.

## Task Fill: pKd (HLA-B*15:01) for this sequence `VQIPEKKCF`
## Result 6.34

Next:
## Task Fill: pKd (HLA-B*15:01) for this sequence `RLIWSHHHI`
## Result 6.53

====

SUBJECT_OF_TEST: HLA-A*02:01
EXPERIMENT_SUMMARY: IEDB peptide-MHC binding, purified MHC/competitive/fluorescence; filed as Kd, often an IC50 or EC50 that approximates it; bounds were set here for any values at or beyond the usual limits of such assays
CONDITION_INFO: source organism: Escherichia coli O157:H7 str. EDL933
PARAMETER_MEASURED: Kd (nM)
One number for each entry, in nM.

## Task Item `RMMGVKYLM` : provide Kd
## Result 2

====

SUBJECT_OF_TEST: HLA-A*31:01
EXPERIMENT_SUMMARY: IEDB peptide-MHC binding, purified MHC/competitive/fluorescence; filed as Kd, often an IC50 or EC50 that approximates it; bounds were set here for any values at or beyond the usual limits of such assays
CONDITION_INFO: source organism: Yersinia pestis Nepal516
PARAMETER_MEASURED: pKd
Give bare numbers, as −log10 of the molar value.

## Task Item `RAMRMVYYL` : provide pKd
## Result 8.40

====

SUBJECT_OF_TEST: HLA-A*26:01
EXPERIMENT_SUMMARY: IEDB peptide-MHC binding, purified MHC/direct/fluorescence; filed as Kd, often an IC50 or EC50 that approximates it; bounds were set here for any values at or beyond the usual limits of such assays
CONDITION_INFO: source organism: Giardia lamblia ATCC 50803
PARAMETER_MEASURED: Kd

## Task Item `IARLVYKAR` : provide Kd
## Result ≥ 20 µM

====

SUBJECT_OF_TEST: HLA-B*27:05
EXPERIMENT_SUMMARY: IEDB peptide-MHC binding, purified MHC/competitive/fluorescence; bounds were set here for any values at or beyond the usual limits of such assays
CONDITION_INFO: source organism: Homo sapiens
PARAMETER_MEASURED: IC50 (nM)
Answers are plain numbers, in nM.

## Task Item `RLFPGLAIK` : provide IC50
## Result 146

====

SUBJECT_OF_TEST: HLA-A*02:03
EXPERIMENT_SUMMARY: IEDB peptide-MHC binding, purified MHC/direct/fluorescence; filed as Kd, often an IC50 or EC50 that approximates it; bounds were set here for any values at or beyond the usual limits of such assays
CONDITION_INFO: source organism: Coxiella burnetii Q321
PARAMETER_MEASURED: Kd (nM)
Give bare numbers, in nM.

## Task Item `YMHGSIHEV` : provide Kd
## Result 2

====

SUBJECT_OF_TEST: HLA-B*07:02
EXPERIMENT_SUMMARY: IEDB peptide-MHC binding, purified MHC/competitive/fluorescence; filed as Kd, often an IC50 or EC50 that approximates it; bounds were set here for any values at or beyond the usual limits of such assays
CONDITION_INFO: source organism: Acinetobacter baumannii
PARAMETER_MEASURED: Kd

## Task Fill: Kd (HLA-B*07:02) for this sequence `SIYAGNTPK`
## Result ≥ 20 µM

====

SUBJECT_OF_TEST: HLA-A*02:11
EXPERIMENT_SUMMARY: IEDB peptide-MHC binding, purified MHC/direct/fluorescence; filed as Kd, often an IC50 or EC50 that approximates it; bounds were set here for any values at or beyond the usual limits of such assays
CONDITION_INFO: source organism: Burkholderia mallei ATCC 23344
PARAMETER_MEASURED: Kd

## Task Fill: Kd (HLA-A*02:11) for this sequence `LARFPCNVI`
## Result ≥ 20 µM

====

SUBJECT_OF_TEST: HLA-A*29:02
EXPERIMENT_SUMMARY: IEDB peptide-MHC binding, purified MHC/direct/fluorescence; filed as Kd, often an IC50 or EC50 that approximates it; bounds were set here for any values at or beyond the usual limits of such assays
CONDITION_INFO: source organism: Vibrio vulnificus CMCP6
PARAMETER_MEASURED: pKd
Give bare numbers, as −log10 of the molar value.

## Task Item `TTILGLLPM` : provide pKd
## Result 7.80

====

SUBJECT_OF_TEST: HLA-B*51:01
EXPERIMENT_SUMMARY: IEDB peptide-MHC binding, purified MHC/direct/fluorescence; filed as Kd, often an IC50 or EC50 that approximates it; bounds were set here for any values at or beyond the usual limits of such assays
CONDITION_INFO: source organism: Staphylococcus aureus
PARAMETER_MEASURED: pKd
Numbers only, as −log10 of the molar value.

## Task Item `LPDLPTTTI` : provide pKd
## Result 6.04
